All values here come from patent US20160297884A1.

What Kd was measured for each of the following?
target: T1, cynomolgus monkey BCMA (cynomolgus monkey, UniProt A0A2K5UD97 1-53); assay: SPR, IgG immobilised, 37 C
T1 construct: Soluble analyte in SPR; construct not described; also called cyBCMA; Cyno BCMA
T1 sequence (A0A2K5UD97 entry or part of it): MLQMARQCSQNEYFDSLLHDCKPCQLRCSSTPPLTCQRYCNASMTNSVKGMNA
// units = nM; emit number, no label

I am curious: what Kd value has been reported for L3.PY/L1.PH/P6E01 (antibody, V domains shown, IgG) VH: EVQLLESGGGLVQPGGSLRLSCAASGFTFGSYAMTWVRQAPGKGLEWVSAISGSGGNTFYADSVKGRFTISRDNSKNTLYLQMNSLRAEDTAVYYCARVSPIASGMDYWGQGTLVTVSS VL: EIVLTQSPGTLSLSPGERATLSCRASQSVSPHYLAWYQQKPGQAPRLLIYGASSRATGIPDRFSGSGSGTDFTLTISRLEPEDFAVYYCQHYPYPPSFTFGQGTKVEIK ?
3.63

Entry L3.PY/H2.QR (antibody, V domains shown, IgG) VH: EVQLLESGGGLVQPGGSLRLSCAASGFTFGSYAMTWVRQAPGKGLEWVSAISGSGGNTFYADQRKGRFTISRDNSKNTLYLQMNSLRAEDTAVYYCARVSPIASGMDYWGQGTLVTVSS VL: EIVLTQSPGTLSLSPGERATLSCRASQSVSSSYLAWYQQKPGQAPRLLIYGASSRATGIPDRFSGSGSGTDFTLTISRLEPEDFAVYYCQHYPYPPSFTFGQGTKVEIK : reported Kd = ?
3.02

What value of Kd has been recorded for this entry: L3.PY/L1.PS/H3.TAQ (antibody, V domains shown, IgG) VH: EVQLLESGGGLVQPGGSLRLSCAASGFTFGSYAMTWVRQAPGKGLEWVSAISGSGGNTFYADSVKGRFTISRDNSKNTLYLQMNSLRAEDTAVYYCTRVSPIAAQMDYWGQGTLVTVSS VL: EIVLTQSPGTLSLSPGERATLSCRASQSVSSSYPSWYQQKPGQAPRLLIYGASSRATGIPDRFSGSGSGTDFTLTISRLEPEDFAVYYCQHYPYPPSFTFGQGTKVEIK
2.14
